Source of measurements: patent US12268723B2

Assay: Cytotoxicity (MTS) in RD cells
Type: cell-based, human
Details: human, RD (rhabdomyosarcoma) cells
Observable: CC50 (µM)

* CC(C)C[C@H](NC(=O)[C@@H](Cc1cccc2ccccc12)NC(=O)OCc1ccccc1)C(=O)N[C@H](C=O)C[C@@H]1CCCNC1=O | 32.5
* CC(C)C[C@H](NC(=O)[C@H](Cc1cccc2ccccc12)NC(=O)OCc1ccccc1)C(=O)N[C@@H](C[C@@H]1CCCNC1=O)C(O)S(=O)(=O)O (stereo partly drawn) [drawing 134] | 95
* CC(C)C[C@H](NC(=O)[C@H](Cc1cccc2ccccc12)NC(=O)OCc1ccccc1)C(=O)N[C@@H](C[C@@H]1CCCNC1=O)C(=O)C(F)(F)F [drawing 122] | 65
